# ASSAY SYSTEM: EP2 (Homo sapiens, UniProt P43116)
# Sequence (P43116 whole entry): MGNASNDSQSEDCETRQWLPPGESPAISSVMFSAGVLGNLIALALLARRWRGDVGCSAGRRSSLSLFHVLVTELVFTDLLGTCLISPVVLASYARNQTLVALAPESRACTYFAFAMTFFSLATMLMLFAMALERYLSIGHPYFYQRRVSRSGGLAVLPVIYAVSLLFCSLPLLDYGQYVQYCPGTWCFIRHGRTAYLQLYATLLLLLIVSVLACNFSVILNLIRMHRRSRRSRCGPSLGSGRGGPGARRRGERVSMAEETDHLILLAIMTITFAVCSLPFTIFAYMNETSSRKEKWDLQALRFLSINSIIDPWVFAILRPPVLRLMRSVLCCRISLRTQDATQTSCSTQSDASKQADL
# TEST METHOD NOTES: Competition radioligand binding, [3H]PGE2, HEK 293 cells expressing EP2
# Parameters: expressed in transfected cells; host or cells: HEK 293 (membranes or whole cells)
# Description: Competition binding experiments were performed in a medium containing Hank's balanced salt solution, Hepes 20 mM, pH 7.3, membranes (˜60 μg protein) or 2×10^5 cells from HEK 293 cells stably expressing human EP2 receptors, [^3H]PGE2 (10 nM) and various concentrations of test compounds in a total volume of 300 μl. […] [^3H-] […] 17-phenyl PGF2 ? and non-specific binding determined with 10^−5M of unlabeled PGE2, or 17-phenyl PGF2 ? , according to receptor subtype studied.
MEASURE NAME: Ki

Please list Ki recorded for the compound CCCCCC(O)c1ccc([C@@H]2[C@@H](C/C=C\CCCC(=O)O)[C@H](Cl)C[C@H]2Cl)cc1 (some centres unmarked)
25 nM

Please list Ki recorded for the compound CCCCCC(O)c1ccc([C@@H]2[C@@H](C/C=C\CCCC(=O)O)[C@H](Cl)C[C@@H]2Cl)cc1 (some centres unmarked)
504 nM
